Entry source: patent US20240209076A1

I'd appreciate it if you could supply pKd values for the items below.
Target: human IL-6 (human, UniProt P05231 30-212)
Sequence (P05231 30-212 limits assumed): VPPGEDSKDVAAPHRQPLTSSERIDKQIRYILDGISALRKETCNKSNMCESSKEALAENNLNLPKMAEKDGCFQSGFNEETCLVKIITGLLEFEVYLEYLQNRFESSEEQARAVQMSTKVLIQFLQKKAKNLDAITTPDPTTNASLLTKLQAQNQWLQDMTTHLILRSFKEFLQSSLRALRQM
Experiment: SPR (Biacore), supernatant antibody on Protein A chip, IL-6 flowed, 37 C
Description: Antibodies were captured on a Protein A chip (GE) by injecting 1:20 cell supernatant dilutions at 10 μL/min for 60 seconds. […] The sensor chip was regenerated by a 60 seconds injection of 10 mM Glycine pH 1.7 at the flow rate of 50 μL/min. […] For this setup, 1 μg/mL of purified antibody was injected over a Protein A chip at 10 μL/min for 25 seconds. […] The sensor chip was regenerated by a 60 seconds injection of 10 mM Glycine pH 1.7 at flow rate of 50 μL/min. […]
Answers are plain numbers, as −log10 of the molar value.

Check out these entries, answers already filled in.
anti-IL-6 antibody, heavy chain T63G, G66D / light chain M32L, M50D, N52S, M88Q (antibody, human IgG1, V domains shown, Human IgG1) VH: EVQLVESGGGLVQPGGSLRLSCAASGFTFSPFAMSWVRQAPGKGLEWVAKISPGGSWTYYSDGVTDRFTFSLDTSKSTAYLQMNSLRAEDTAVYYCARQLWGYYALDIWGQGTLVTVSS VL: DIQLTQSPSSLSASVGDRVTITCSASISVSYLYWYQQKPGKAPKLLIYDDSSLASGVPSRFSGSGSGTDFTLTISSLQPEDFATYYCQQWSGYPYTFGQGTKVEIK ... 9.58
anti-IL-6 antibody, heavy chain T63P, G66D / light chain M32L, M50D, N52S, M88Q (antibody, human IgG1, V domains shown, Human IgG1) VH: EVQLVESGGGLVQPGGSLRLSCAASGFTFSPFAMSWVRQAPGKGLEWVAKISPGGSWTYYSDPVTDRFTFSLDTSKSTAYLQMNSLRAEDTAVYYCARQLWGYYALDIWGQGTLVTVSS VL: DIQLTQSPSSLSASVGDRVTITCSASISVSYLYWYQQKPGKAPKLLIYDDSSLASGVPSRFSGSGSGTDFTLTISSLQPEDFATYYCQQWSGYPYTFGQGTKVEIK ... 9.61

As a next step, examine the binder that follows.
### Prompt Which measured pKd value corresponds to anti-IL-6 antibody, heavy chain S35I, G66D / light chain M32L, M50D, N52S, M88Q (antibody, human IgG1, V domains shown, Human IgG1) VH: EVQLVESGGGLVQPGGSLRLSCAASGFTFSPFAMIWVRQAPGKGLEWVAKISPGGSWTYYSDTVTDRFTFSLDTSKSTAYLQMNSLRAEDTAVYYCARQLWGYYALDIWGQGTLVTVSS VL: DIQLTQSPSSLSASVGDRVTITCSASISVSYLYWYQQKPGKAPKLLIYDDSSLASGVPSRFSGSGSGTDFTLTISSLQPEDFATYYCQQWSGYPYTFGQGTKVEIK ?
### Response 8.79
